settings: human gut metagenome, 24 h, 2 µM; note: call rule not given here

molecule | Bacterial Biotransformation
N#Cc1ccc2[nH]cc(CCCCN3CCN(c4ccc5oc(C(N)=O)cc5c4)CC3)c2c1 | Compound metabolized
COc1ccc(/C=C/C(=O)Nc2ccccc2C(=O)O)cc1OC | Compound NOT metabolized
C#C[C@]1(OC(C)=O)CC[C@H]2[C@@H]3CCC4=C/C(=N/O)CC[C@@H]4[C@H]3CC[C@@]21CC [NORGESTIMATE] | Compound NOT metabolized
COc1ccnc(C[S+]([O-])c2nc3ccc(OC(F)F)cc3[nH]2)c1OC (centres undefined) | Compound metabolized

* * *

assay: The drug is tested on Z-001 corresponding to mouse gut metagenome with ENA study accession number: PRJEB37062 and ENA sample accession number: ERS12561801 for biotransformation under anaerobic condition. The drug concentrations were measured over 9 timepoints collected between 0 and 24 hours of incubation by liquid-chromatography-coupled mass spectrometry (LC–MS); settings: 2 µM
observation_type: Bacterial Biotransformation

compound | val
CSc1ccc2c(c1)C(N1CCN(C)CC1)Cc1ccccc1S2.O=C(O)/C=C\C(=O)O (stereo not drawn) | Compound metabolized
C[C@H]1C[C@H]2[C@@H]3CCC4=CC(=O)C=C[C@]4(C)[C@@]3(F)[C@@H](O)C[C@]2(C)[C@@]1(O)C(=O)CO | Compound NOT metabolized
O=C1CCc2ccc(OCCCCN3CCN(c4cccc(Cl)c4Cl)CC3)cc2N1 | Compound NOT metabolized
COc1ccc(Cc2nccc3cc(OC)c(OC)cc23)cc1OC | Compound metabolized
Clc1cccc(Cl)c1N=C1NCCN1 | Compound metabolized

Task: Name the recorded Bacterial Biotransformation for C#C[C@]1(OC(C)=O)CC[C@H]2[C@@H]3CCC4=C[C@@H](OC(C)=O)CC[C@@H]4[C@H]3CC[C@@]21C [ETHYNODIOL DIACETATE] .
Output: Compound metabolized

Task: Name the recorded Bacterial Biotransformation for COc1ccc2cc([C@H](C)C(=O)O)ccc2c1 .
Output: Compound NOT metabolized

Task: Name the recorded Bacterial Biotransformation for CC(C)(C)N.CCC[C@H](N[C@@H](C)C(=O)N1[C@H](C(=O)O)C[C@@H]2CCCC[C@@H]21)C(=O)OCC .
Output: Compound NOT metabolized

* * *

conditions: human gut metagenome, 24 h, 2 µM
observation_type: Bacterial Biotransformation

Please review the entries below; each comes with its answer.
compound | val
Nc1nc(NC2CC2)c2ncn([C@H]3C=C[C@@H](CO)C3)c2n1.Nc1nc(NC2CC2)c2ncn([C@H]3C=C[C@@H](CO)C3)c2n1.O=S(=O)(O)O [ABACAVIR SULFATE] | Compound metabolized
CC(=O)OCC(CCn1cnc2cnc(N)nc21)COC(C)=O | Compound metabolized
Nc1nc(N)nc(-c2cc(Cl)ccc2Cl)n1.O=C(O)/C=C\C(=O)O [IRSOGLADINE MALEATE] | Compound metabolized
CCCN1C[C@H](CSC)C[C@@H]2c3cccc4[nH]cc(c34)C[C@H]21.CS(=O)(=O)O [PERGOLIDE MESYLATE] | Compound NOT metabolized

Task: Name the recorded Bacterial Biotransformation for CNNCc1ccc(C(=O)NC(C)C)cc1 .
Output: Compound metabolized

Task: Name the recorded Bacterial Biotransformation for COc1ccc(Cc2nccc3cc(OC)c(OC)cc23)cc1OC .
Output: Compound metabolized

Task: Name the recorded Bacterial Biotransformation for Cc1cc2c(s1)Nc1ccccc1N=C2N1CCN(C)CC1 .
Output: Compound metabolized

Task: Name the recorded Bacterial Biotransformation for CCOC(=O)[C@H](CCc1ccccc1)N[C@@H](C)C(=O)N1CCC[C@H]1C(=O)O.O=C(O)/C=C\C(=O)O [ENALAPRIL MALEATE] .
Output: Compound NOT metabolized

* * *

test: The drug is tested on Z-006 corresponding to mouse gut metagenome with ENA study accession number: PRJEB37062 and ENA sample accession number: ERS12561806 for biotransformation under anaerobic condition. The drug concentrations were measured over 9 timepoints collected between 0 and 24 hours of incubation by liquid-chromatography-coupled mass spectrometry (LC–MS); details: 2 µM
observation_type: Bacterial Biotransformation

Please review the entries below; each comes with its answer.
compound | Bacterial Biotransformation
CC(C)(C)NC(=O)[C@H]1CC[C@H]2[C@@H]3CC[C@H]4NC(=O)C=C[C@]4(C)[C@H]3CC[C@]12C [FINASTERIDE] | Compound metabolized
COc1cc2nc(N3CCN(C(=O)C4COc5ccccc5O4)CC3)nc(N)c2cc1OC.CS(=O)(=O)O (centres undefined) [DOXAZOSIN MESYLATE] | Compound NOT metabolized
CN(C/C=C/C#CC(C)(C)C)Cc1cccc2ccccc12 | Compound NOT metabolized
CN1CCN(CCCN2c3ccccc3Sc3ccc(Cl)cc32)CC1.O=S(=O)(O)CCS(=O)(=O)O [PROCHLORPERAZINE EDISYLATE] | Compound NOT metabolized
CC(=O)SCC(Cc1ccccc1)C(=O)NCC(=O)OCc1ccccc1 (centres undefined) | Compound metabolized
CC(CCc1ccccc1)NCC(O)c1ccc(O)c(C(N)=O)c1 (centres undefined) | Compound NOT metabolized

Task: Name the recorded Bacterial Biotransformation for Clc1cccc(Cl)c1N=C1NCCN1 .
Output: Compound NOT metabolized

Task: Name the recorded Bacterial Biotransformation for CC(=O)O[C@H]1C(=O)[C@@]2(C)[C@H]([C@H](OC(=O)c3ccccc3)[C@]3(O)C[C@H](OC(=O)[C@H](O)[C@@H](NC(=O)c4ccccc4)c4ccccc4)C(C)=C1C3(C)C)[C@]1(OC(C)=O)CO[C@@H]1C[C@@H]2O .
Output: Compound NOT metabolized

Task: Name the recorded Bacterial Biotransformation for C[C@]12CCC(=O)C=C1[C@@H]1C[C@@H]1[C@H]1[C@@H]3[C@@H]4C[C@@H]4[C@@]4(CCC(=O)O4)[C@@]3(C)CC[C@@H]12 .
Output: Compound metabolized

Task: Name the recorded Bacterial Biotransformation for CCCN1C[C@H](CSC)C[C@@H]2c3cccc4[nH]cc(c34)C[C@H]21.CS(=O)(=O)O [PERGOLIDE MESYLATE] .
Output: Compound NOT metabolized

Task: Name the recorded Bacterial Biotransformation for CN(C)CCOC(C)(c1ccccc1)c1ccccn1.O=C(O)CCC(=O)O (centres undefined) [DOXYLAMINE SUCCINATE] .
Output: Compound NOT metabolized

Task: Name the recorded Bacterial Biotransformation for CN1C[C@H](C(=O)N[C@]2(C)O[C@@]3(O)[C@@H]4CCCN4C(=O)[C@H](Cc4ccccc4)N3C2=O)C[C@@H]2c3cccc4[nH]cc(c34)C[C@H]21.CS(=O)(=O)O [DIHYDROERGOTAMINE MESYLATE] .
Output: Compound NOT metabolized

Task: Name the recorded Bacterial Biotransformation for CC(=O)OCC(=O)[C@@]1(OC(C)=O)[C@@H](C)C[C@H]2[C@@H]3C[C@H](F)C4=CC(=O)C=C[C@]4(C)[C@@]3(F)[C@@H](O)C[C@@]21C [DIFLORASONE DIACETATE] .
Output: Compound metabolized

Task: Name the recorded Bacterial Biotransformation for CCN(C(C)=O)c1cccc(-c2ccnc3c(C#N)cnn23)c1 .
Output: Compound NOT metabolized

* * *

conditions: human gut metagenome, 24 h, 2 µM

compound | Bacterial Biotransformation
CCc1oc2ccccc2c1C(=O)c1cc(Br)c(O)c(Br)c1 | Compound NOT metabolized
Nc1nnc(-c2cccc(Cl)c2Cl)c(N)n1 | Compound NOT metabolized
CCCCC(=O)O[C@]1(C(=O)CO)[C@@H](C)C[C@H]2[C@@H]3CCC4=CC(=O)C=C[C@]4(C)[C@@]3(F)[C@@H](O)C[C@@]21C [BETAMETHASONE VALERATE] | Compound NOT metabolized

* * *

conditions: human gut metagenome, 24 h, 2 µM
observation_type: Bacterial Biotransformation

Please review the entries below; each comes with its answer.
molecule | observation_type | val
CCOc1cc(CC(=O)N[C@@H](CC(C)C)c2ccccc2N2CCCCC2)ccc1C(=O)O [REPAGLINIDE] | Bacterial Biotransformation | Compound metabolized
O=C1CC2(CCCC2)CC(=O)N1CCCCN1CCN(c2ncccn2)CC1 | Bacterial Biotransformation | Compound NOT metabolized
O=P1(N(CCCl)CCCl)NCCCO1 (stereo unspecified) [CYCLOPHOSPHAMIDE ANHYDROUS] | Bacterial Biotransformation | Compound NOT metabolized
CSc1ccc2c(c1)C(N1CCN(C)CC1)Cc1ccccc1S2.O=C(O)/C=C\C(=O)O (stereo unspecified) | Bacterial Biotransformation | Compound NOT metabolized
CC(C)c1c(CN(C)C(C)Cc2ccccc2)n(C)n(-c2ccccc2)c1=O (stereo unspecified) | Bacterial Biotransformation | Compound metabolized

Task: Name the recorded Bacterial Biotransformation for CCN1CCCC1CNC(=O)c1cc(S(=O)(=O)CC)c(N)cc1OC (stereo unspecified) [AMISULPRIDE] .
Output: Compound NOT metabolized

* * *

assay: The drug is tested on WLS-027 corresponding to human gut metagenome with ENA study accession number: PRJEB37062 and ENA sample accession number: ERS12561744 for biotransformation under anaerobic condition. The drug concentrations were measured over 9 timepoints collected between 0 and 24 hours of incubation by liquid-chromatography-coupled mass spectrometry (LC–MS); conditions: 2 µM

compound_structure | Bacterial Biotransformation
O=C([O-])C[C@H](O)C[C@H](O)/C=C/c1c(C2CC2)nc2ccccc2c1-c1ccc(F)cc1.O=C([O-])C[C@H](O)C[C@H](O)/C=C/c1c(C2CC2)nc2ccccc2c1-c1ccc(F)cc1.[Ca+2] | Compound metabolized
C[C@@H](c1ncncc1F)[C@](O)(Cn1cncn1)c1ccc(F)cc1F | Compound metabolized
